Assay: Pharmacokinetics in mice
Assay type: in vivo, mouse
Details: female, Swiss-Webster, mouse, whole blood; Oral 50 mg/kg, mice
endpoint-name: Tmax (min)
Just the number in min, nothing appended.

Request: Look up Tmax: O=C(NCc1ccncc1)C12CC3CC(C1)CC(c1ccc(Cl)cc1)(C3)C2
Result: 15
